- MEASUREMENT TARGET: human VR1 (Homo sapiens, UniProt Q8NER1)
- Construct: expressed in transfected cells
- Sequence (Q8NER1 whole entry): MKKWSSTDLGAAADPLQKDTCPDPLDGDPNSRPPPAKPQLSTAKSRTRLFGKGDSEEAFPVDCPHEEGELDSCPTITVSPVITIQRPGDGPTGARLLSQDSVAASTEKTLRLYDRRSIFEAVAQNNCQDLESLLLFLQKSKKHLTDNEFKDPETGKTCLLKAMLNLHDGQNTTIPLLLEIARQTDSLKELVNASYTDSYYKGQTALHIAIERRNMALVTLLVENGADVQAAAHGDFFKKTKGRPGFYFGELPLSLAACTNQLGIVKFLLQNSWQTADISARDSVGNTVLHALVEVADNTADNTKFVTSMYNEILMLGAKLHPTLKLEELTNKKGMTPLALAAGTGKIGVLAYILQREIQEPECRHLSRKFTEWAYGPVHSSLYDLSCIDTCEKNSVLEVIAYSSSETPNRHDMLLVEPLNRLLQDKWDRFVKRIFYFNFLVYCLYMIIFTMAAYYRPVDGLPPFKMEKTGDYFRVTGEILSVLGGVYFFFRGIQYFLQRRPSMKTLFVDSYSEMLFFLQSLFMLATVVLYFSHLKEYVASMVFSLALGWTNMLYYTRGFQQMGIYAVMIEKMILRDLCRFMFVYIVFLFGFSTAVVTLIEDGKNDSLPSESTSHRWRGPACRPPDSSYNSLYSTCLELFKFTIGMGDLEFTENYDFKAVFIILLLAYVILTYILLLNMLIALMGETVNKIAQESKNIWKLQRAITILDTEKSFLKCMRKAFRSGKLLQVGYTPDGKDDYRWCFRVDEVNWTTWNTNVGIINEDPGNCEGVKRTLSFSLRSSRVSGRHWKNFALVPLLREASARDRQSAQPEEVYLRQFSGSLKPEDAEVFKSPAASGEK
- ASSAY OVERVIEW: Capsaicin-induced Ca2+ influx in the human VR1-transfected CHO cell line (Assay 1)
- Assay type: cell-based
- CONDITION PARAMETERS: human VR1-CHOluc9aeq cells, 10 nM capsaicin; compound purity about 40 to 90%; read-out: hVR1 class
pIC50: −log10 of the molar value.
Form field: pIC50 (one value per entry).

{"CHEMICAL STRING": "O=C(Nc1cccc(-c2ccc(F)cc2)c1)Nc1ccccc1CCO", "MEASUREMENT TARGET": "human VR1 (Homo sapiens, UniProt Q8NER1)", "MEASURED": "> 7.00"}
{"CHEMICAL STRING": "COc1cccc(CNC(=O)Nc2ccc(F)cc2)c1", "MEASUREMENT TARGET": "human VR1 (Homo sapiens, UniProt Q8NER1)", "MEASURED": "6.00 to 6.30"}
{"CHEMICAL STRING": "Cc1ccccc1Oc1ccccc1NC(=O)Nc1ccccc1CCO", "MEASUREMENT TARGET": "human VR1 (Homo sapiens, UniProt Q8NER1)", "MEASURED": "6.00 to 6.30"}
{"CHEMICAL STRING": "O=C(Nc1ccc(Cl)c(C(F)(F)F)c1)Nc1cccc(-c2ccccc2)c1CCO", "MEASUREMENT TARGET": "human VR1 (Homo sapiens, UniProt Q8NER1)", "MEASURED": "6.30 to 7.00"}

Please look at the following compound next.
Prompt line: Param readout = pIC50; param system = human VR1 (Homo sapiens, UniProt Q8NER1); param query = Cc1ccc(-c2cccc(NC(=O)Nc3ccccc3CCO)c2)cc1Cl ; response: value
Response line: > 7.00

----------
- MEASUREMENT TARGET: human VR1 (Homo sapiens, UniProt Q8NER1)
- Construct: expressed in transfected cells
- ASSAY OVERVIEW: Capsaicin-induced Ca2+ influx in the human VR1-transfected CHO cell line (Assay 1)
- Assay type: cell-based
- CONDITION PARAMETERS: human VR1-CHOluc9aeq cells, 10 nM capsaicin; compound purity about 40 to 90%; read-out: hVR1 class
Item-by-item account of IC50

{"COMPOUND": "COc1cccc(NC(=O)NCc2cccc(Cl)c2)c1 [Example 39]", "IC50": "0.5 to 1 µM"}
{"COMPOUND": "O=C(Nc1ccc(Br)c(C(F)(F)F)c1)Nc1ccccc1CCO [Example 185]", "IC50": "< 0.1 µM"}
{"COMPOUND": "O=C(Nc1ccc(Cl)cc1)Nc1ccccc1CCO [Example 106]", "IC50": "0.5 to 1 µM"}

Prompt line: For O=C(Nc1ccc(F)cc1)Nc1ccccc1CCO [Example 131] , what is its reported IC50?
Response line: 0.5 to 1 µM

Prompt line: Query: IC50; subject: COc1ccc(F)cc1-c1cccc(NC(=O)Nc2ccccc2CCO)c1 [Example 235]
Response line: < 0.1 µM

Prompt line: Look at this compound and give its reported IC50. O=C(Nc1cccc(-c2cc(Cl)ccc2Cl)c1)Nc1ccccc1CCO [Example 209]
Response line: < 0.1 µM

----------
- MEASUREMENT TARGET: human VR1 (Homo sapiens)
- Construct: expressed in transfected cells
- ASSAY OVERVIEW: Capsaicin-induced Ca2+ influx in the human VR1-transfected CHO cell line (Assay 1)
- Format: cell-based
- CONDITION PARAMETERS: human VR1-CHOluc9aeq cells, 10 nM capsaicin; compound purity about 40 to 90%; read-out: hVR1 class
Recorded measurements of IC50, one per entry

Study these solved cases before continuing.
{"CHEMICAL STRING": "O=C(Nc1cccc(-c2cccnc2)c1)Nc1ccccc1CCO", "MEASUREMENT TARGET": "human VR1 (Homo sapiens)", "IC50": "500 to 1000 nM"}
{"CHEMICAL STRING": "O=C(Nc1ccccc1CCO)Nc1ccccc1-c1ccccc1", "MEASUREMENT TARGET": "human VR1 (Homo sapiens)", "IC50": "500 to 1000 nM"}

Prompt line: Recorded IC50 of COc1cccc(CNC(=O)Nc2ccccc2)c1 , please.
Response line: 500 to 1000 nM

Prompt line: Fill in the blank: the reported IC50 of O=C(Nc1cccc(-c2ccc(Cl)c(F)c2)c1)Nc1ccccc1CCO is ____.
Response line: < 100 nM

Prompt line: Look up IC50 for this compound: O=C(Nc1cccc(-c2cc(F)cc(F)c2)c1)Nc1ccccc1CCO
Response line: < 100 nM

Prompt line: Bench note: what IC50 did COc1cccc(CNC(=O)Nc2cccc(SC)c2)c1 show?
Response line: 500 to 1000 nM

Prompt line: What value of measured IC50 is listed for CS(=O)(=O)Nc1ccc2c(c1)CN(C(=O)Nc1ccc(Oc3ccccc3)cc1)CC2 ?
Response line: 500 to 1000 nM

Prompt line: // returns reported IC50 for input COc1cc(CNC(=O)NCCc2ccccc2)ccc1O
Response line: 100 to 500 nM

Prompt line: // lookup IC50 for O=C(Nc1ccc([N+](=O)[O-])cc1)Nc1ccccc1CCO
Response line: 500 to 1000 nM

Prompt line: IC50 for COc1cc(CNC(=O)Nc2ccc(Cl)c(C(F)(F)F)c2)ccc1O ?
Response line: < 100 nM

----------
MEASUREMENT LABEL: melting point (°C)

{"CHEMICAL STRING": "O=C(Nc1cc([N+](=O)[O-])ccc1F)Nc1ccccc1CCO", "MEASUREMENT LABEL": "melting point", "UNIT SYMBOL": "°C", "MEASURED": 183}

A = Cc1ccc2ccccc2c1NC(=O)Nc1ccccc1CCO
B = O=C(Nc1cccc(-c2cc(Cl)ccc2Cl)c1)Nc1ccccc1CCO
Prompt line: When their melting point values are compared, which is larger, A or B ? // return label of chosen record
Response line: A
(A: 204 °C, B: 142 °C)

----------
Below, each entry is listed alongside its reported pIC50.
- MEASUREMENT TARGET: human VR1 (Homo sapiens, UniProt Q8NER1)
- Construct: expressed in transfected cells
- ASSAY OVERVIEW: Capsaicin-induced Ca2+ influx in the human VR1-transfected CHO cell line (Assay 1)
- Type: cell-based
- CONDITION PARAMETERS: human VR1-CHOluc9aeq cells, 10 nM capsaicin; compound purity about 40 to 90%; read-out: hVR1 class
pIC50: −log10 of the molar value.

{"COMPOUND": "O=C(Nc1ccc(Br)cc1)Nc1ccccc1CCO [Example 114]", "pIC50": "6.00 to 6.30"}

Prompt line: Given COc1cc(CNC(=O)Nc2ccccc2)ccc1O [Example 33] , state its recorded pIC50.
Response line: 6.00 to 6.30

Prompt line: Dear colleague, I am looking for the recorded pIC50 of the following compound: COc1cc(CNC(=O)Nc2cccc(C(C)=O)c2)ccc1O [Example 59]
Response line: 6.00 to 6.30

Prompt line: Item under review: NS(=O)(=O)c1ccc2c(c1)CN(C(=O)Nc1ccc(Cl)c(C(F)(F)F)c1)CC2 [Example 84] . Reported pIC50?
Response line: 6.30 to 7.00

Prompt line: Report pIC50 for COc1ccc(-c2ccccc2)cc1NC(=O)Nc1ccccc1CCO [Example 173] please.
Response line: 6.30 to 7.00

----------
MEASUREMENT LABEL: melting point (°C)

{"COMPOUND": "COc1cc(CNC(=O)Nc2ccc(C(C)C)cc2)ccc1O", "UNIT SYMBOL": "°C", "melting point": 156}
{"COMPOUND": "Nc1ccc2c(c1)C(NC(=O)Nc1ccc(Cl)c(C(F)(F)F)c1)CCC2 (stereo not shown)", "UNIT SYMBOL": "°C", "melting point": 178}
{"COMPOUND": "O=C(Nc1ccccc1CCO)Nc1cccc2ccc(O)cc12", "UNIT SYMBOL": "°C", "melting point": 212}
{"COMPOUND": "O=C(Nc1cccc(-c2ccc(OC(F)(F)F)cc2)c1)Nc1ccccc1CCO", "UNIT SYMBOL": "°C", "melting point": 184}
{"COMPOUND": "CSc1ccc(-c2cccc(NC(=O)Nc3ccccc3CCO)c2)cc1", "UNIT SYMBOL": "°C", "melting point": 191}

----------
MEASUREMENT LABEL: melting point (°C)

Recorded results for 8 compounds are shown here.
{"CHEMICAL STRING": "O=C(Nc1ccc(-c2ccc(F)cc2)cc1)Nc1ccccc1CCO", "melting point [°C]": 197}
{"CHEMICAL STRING": "O=C(Nc1cccc(-c2ccc(F)cc2F)c1)Nc1ccccc1CCO", "melting point [°C]": 169}
{"CHEMICAL STRING": "O=C(Nc1cccc(-c2cc(Cl)cc(Cl)c2)c1)Nc1ccccc1CCO", "melting point [°C]": 184}
{"CHEMICAL STRING": "O=C(Nc1cccc(-c2cccs2)c1)Nc1ccccc1CCO", "melting point [°C]": 195}
{"CHEMICAL STRING": "O=C(Nc1cccc(-c2ccccc2Cl)c1)Nc1ccccc1CCO", "melting point [°C]": 153}
{"CHEMICAL STRING": "CC(=O)c1cccc(NC(=O)Nc2ccccc2CCO)c1", "melting point [°C]": 177}
{"CHEMICAL STRING": "O=C(Nc1ccc(N2CCCCC2)cc1)Nc1ccccc1CCO", "melting point [°C]": 188}
{"CHEMICAL STRING": "O=C(Nc1cccc(-c2ccc(Cl)cc2Cl)c1)Nc1ccccc1CCO", "melting point [°C]": 166}

P = O=C(Nc1ccc(Cl)c([N+](=O)[O-])c1)Nc1ccccc1CCO
Q = O=C(Nc1cccc(-c2cccc3ccccc23)c1)Nc1ccccc1CCO
R = Cc1cc(C)c(NC(=O)Nc2ccccc2CCO)c(C)c1
Prompt line: Please list the entries, largest melting point first. // list labels; follow requested order
Response line: R, P, Q
(R: 243 °C, P: 170 °C, Q: 113 °C)
